Data origin, for the record: PubChem BioAssay

Tested on: Plasmodium falciparum Sir2 (PF13_0152, Sir2A)
Assay: pfSir2 binders on small-molecule microarrays, primary screen, biochemical, small-molecule microarray, 635 nm fluorescence (AID 1098);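 note: score merges spot fluorescence intensity with its signal-to-noise ratio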
Conditions: small-molecule microarray binding, fluorescence 635 nm; higher = more signal
Classify as follows. Reported composite z-score greater than or equal to 1: y. Reported composite z-score below: n.

Compound: COCC1=C2[C@@H](CCc3ccccc3)OB(O)C[C@@H]2[C@@H]2C(=O)N(Cc3ccccc3)C(=O)[C@@H]2C1
Group label: n
//
Compound: O=C1O[C@H](c2ccccc2)[C@H](c2ccccc2)N2[C@H]1[C@@H](C(=O)Nc1nc3ccccc3s1)[C@]1(C(=O)Nc3ccccc31)[C@H]2c1ccc(O)cc1
Group label: y
//
Compound: COC(=O)[C@@]1(Cc2ccccc2)N=C(c2ccc(OCCCO)cc2)O[C@H]1c1ccccc1N=[N+]=[N-]
Group label: y
//
Compound: COC(=O)[C@@]1(Cc2ccccc2)[C@H]2c3cc(C(=O)N(C)C)n(Cc4cc(C)n(C)n4)c3C[C@H]2CN1C(=O)c1ccccc1
Group label: y
//
Compound: CN(C)C(=O)[C@@]1(CCC(=O)OC(C)(C)C)N=C(c2ccc(OCCCO)cc2)O[C@H]1c1ccccc1
Group label: y
//
Compound: CC1=C2[C@@H](CCc3ccccc3)OB(O)C[C@@H]2n2c(=O)n(-c3ccccc3)c(=O)n2C1
Group label: n
//
Compound: COCCOC(=O)N1C(=O)[C@@]2(c3cc(C#CCC(C(=O)OC)C(=O)OC)ccc31)[C@H](C(=O)N1CCCCCCC1)[C@H]1C(=O)O[C@H](c3ccccc3)[C@H](c3ccccc3)N1[C@@H]2c1ccc(OCCO)cc1
Group label: y
//
Compound: Cc1ccc(S[C@]2(C(=O)NCC(C)C)CC(=O)N(Cc3ccccc3Cl)[C@@H]2c2ccc(CO)cc2)cc1
Group label: n
//
Compound: CC(C)C(O)C1C=CC2C(=O)N(c3ccccc3)C(=O)C2N1Nc1ccc(C#N)cc1 (centres undefined)
Group label: y
//
Compound: O=C1O[C@@H](c2ccccc2)[C@@H](c2ccccc2)N2[C@@H](c3ccc(O)cc3)[C@]3(C(=O)Nc4ccc(C#CC5(O)CCCCCC5)cc43)[C@@H](C(=O)N3CCCCCCC3)[C@H]12
Group label: y
//
Compound: CC(C)c1ccc(NN2C(C(O)c3c(F)cccc3Cl)C=CC3C(=O)N(c4ccccc4)C(=O)C32)cc1 (centres undefined)
Group label: n
//
Compound: COCCOC(=O)N1C(=O)[C@@]2(c3cc(C#CCC(C(=O)OC)C(=O)OC)ccc31)[C@H](c1ccccc1OCCO)N1[C@H](c3ccccc3)[C@H](c3ccccc3)OC(=O)[C@H]1[C@@H]2C(N)=O
Group label: y
//
Compound: CCOC(=O)C1=C[C@@H](CC)N(S(=O)(=O)c2ccc(C)cc2)[C@H]1c1ccccc1
Group label: n
//
Compound: C=CC[C@@H](OC(=O)Nc1ccc(OC)cc1)c1ccc(O)c2ccccc12
Group label: y
